- System: OVCAR-3
- protocol description: NCI tumour cell line growth inhibition, 48 h
The source made the active and inactive calls. No stated cut-off is given here; in the data, active = GI50 up to about 1.1 µM and inactive = higher.
readout type: GI50

compound	target system	GI50
CC(C)(C)c1cc(C(=O)Nc2cc(Br)c(Br)cc2S(N)(=O)=O)cc(C(C)(C)C)c1O	OVCAR-3	7.91 µM (inactive)
Nc1nc(-c2ccc3ccccc3c2)cc(-c2cc(-c3ccc4ccccc4c3)nc(N)n2)n1	OVCAR-3	> 100 µM (inactive)
O=c1c2c(oc3ccccc13)-c1ccccc1OC2	OVCAR-3	> 100 µM (inactive)
Cc1ccc(C(=O)C(C)N)cc1 (stereo not given)	OVCAR-3	> 100 µM (inactive)
COC(=O)CCC(C)[C@H]1CCC2C3C(C[C@H](OC(C)=O)[C@@]21C)[C@@]1(C)CCC2(C[C@H]1C[C@H]3OC(C)=O)OOC1(CCCC1)OO2 (stereo not given in full)	OVCAR-3	5.56 µM (inactive)

Prompt line: GET /values?readout=GI50&item= `Cc1cc2ccccc2c[n+]1CC(O)C[n+]1cc2ccccc2cc1C`
Response line: 51.6 µM (inactive)

Prompt line: `COc1ccc2c(c1)[n+]([O-])c(C(C)=O)c(C)[n+]2[O-]` ?
Response line: > 100 µM (inactive)

Prompt line: `NN=C(S)Nc1cccc(Cl)c1` ?
Response line: 29.3 µM (inactive)

Prompt line: COC1OC2COC1(OC)C1OC(C)(C)OC21 (stereo not given) ?
Response line: > 100 µM (inactive)

Prompt line: `COc1ccc2c(c1)OC[C@@H]1c3cc(O)c(OCc4ccccc4)cc3O[C@H]21` ?
Response line: 38 µM (inactive)

====

- System: NCI-H522
- protocol description: NCI tumour cell line growth inhibition, 48 h
Active and inactive are the calls of the source. Rule as the data show it: active = GI50 up to about 1.1 µM and inactive = higher.
In this section, each of the compounds is paired with its reported GI50.

Guide cases for GI50, answers given:
> print(dat)
                                   compound       reported.value
1         COc1ccc(/C=C/C(=O)c2sc(N)nc2C)cc1  > 100 µM (inactive)
2  CCCCCCCCCCC(C)CCCCCCC(=O)OCC(COP(=O)([O-])OCC[N+](C)(C)C)OC(=O)CCCCCCC(C)CCCCCCCCCC (stereo not given)  > 100 µM (inactive)

Prompt line: GET /values?readout=GI50&item= `CC(=O)OCCn1cnc2nc(Nc3ccccc3)nc(Cl)c21`
Response line: 84.9 µM (inactive)

Prompt line: `Cc1cc2ccccc2c[n+]1CC(O)C[n+]1cc2ccccc2cc1C` ?
Response line: > 100 µM (inactive)

Prompt line: `Cc1ccc(/N=N/c2ccc(N(CCC#N)CCC#N)cc2C)c(Br)c1` ?
Response line: 18.5 µM (inactive)

====

- Test system: HL-60
- protocol description: NCI tumour cell line growth inhibition, 48 h
Active and inactive are the calls of the source. No stated cut-off is given here; in the data, active = GI50 up to about 1.1 µM and inactive = higher.
Log the outcome using a class from True (active), False (inactive)

> print(dat)
                                   compound  class.label
1  O=C(c1nc2ccc([N+](=O)[O-])cc2nc1O)C(O)c1ccc2c(c1)OCO2 (stereo not given)        False
2  O=C1c2ccccc2C2(c3ccc(Cl)cc3)N[C@H]3CCCC[C@@H]3N12 (stereo not given in full)        False
3  Cc1cccc(-c2nc3ccc([N+](=O)[O-])cc3c(=O)o2)c1        False

Prompt line: Tell me the assay call for `CCCOc1ccc(/C=C/c2cc(OC)c(OC)c(OC)c2)cc1` please.
Response line: True

Prompt line: `COc1ccc(P2(=S)OC(C)(C)C(C)(C)O2)cc1` ?
Response line: False

Prompt line: `CC/N=C(\N)CSS(=O)(=O)O` ?
Response line: False

Prompt line: O=[N+]([O-])c1ccc(C2=NOC(c3ccccc3F)N2C23CC4CC(CC(C4)C2)C3)cc1 (stereo not given) ?
Response line: False

Prompt line: `COC(=O)c1cc2c3c(ccc2[nH]1)N(C(=O)c1cc2c4c(ccc2[nH]1)N(C(=O)c1cc2c5c(ccc2[nH]1)N(C(N)=O)CC5)CC4)CC3` ?
Response line: False

Prompt line: `Clc1ccc(/N=C/c2cc3cc(Br)ccc3nc2Cl)cc1` ?
Response line: False

Prompt line: `COc1cc(OC)c(OC)cc1/C=N/N=C(\N)NO` ?
Response line: False

====

- Test system: Malme-3M
- protocol description: NCI tumour cell line growth inhibition, 48 h
Active and inactive are the calls of the source. Rule as the data show it: active = GI50 up to about 1.1 µM and inactive = higher.
Log the outcome using a class from y = active, n = inactive

Examples with answers:
molecule	class label
NC(=O)N/N=C(\CC1OC(=O)c2ccccc21)c1ccco1 (configuration not stated)	n
Cc1ccc(C2(O)c3ccccc3C(=O)N(C)C2(O)c2ccc(C)cc2)cc1 (configuration not stated)	n
CSc1nc(NC2OC(COC(C)=O)C(OC(C)=O)C(OC(C)=O)C2OC(C)=O)c(/N=C(\C)C(C)=O)c(=O)n1C (configuration not stated)	n
COc1cc([C@@H]2c3cc4c(cc3[C@@H](Nc3ccc(NC(=O)c5cc(NC(=O)c6cc([N+](=O)[O-])cn6C)cn5C)cc3)[C@H]3COC(=O)[C@H]23)OCO4)cc(OC)c1O	n

Prompt line: Tell me the assay call for `Cc1ccc(NC(=O)CCC(CC(=O)C(C)(C)C)=NNC(=O)C(=O)NN)cc1C` please.
Response line: n

Prompt line: `COc1cc(OC)c(OC)cc1/C=N/N=C(\N)NO` ?
Response line: n

Prompt line: COC(=O)C1CC(C(=O)OC)c2nc3cc(C)ccc3nc21 (configuration not stated) ?
Response line: n

Prompt line: Cc1ccc(OCC2OC(n3cnc4c(Br)nc(Br)nc43)CC2Oc2ccc(C)cc2)cc1 (configuration not stated) ?
Response line: n

Prompt line: COc1cc(C2c3cc4c(cc3OC(NC3CCCCC3)C2C)OCO4)cc(OC)c1OC (configuration not stated) ?
Response line: y

Prompt line: COC(=O)/C=C\COCC1C2CCC(=O)C21 (configuration not stated) ?
Response line: n

Prompt line: `CCCCCCCCCCCCNC(=S)OC` ?
Response line: n

Prompt line: `CC1=C(C)SC(=C2Sc3[n-]c(=O)[nH]c(=O)c3S2)S1.CCCC[N+](CCCC)(CCCC)CCCC` ?
Response line: n

Prompt line: Clc1cc(Cl)cc(C2SCc3nc4ccccc4n32)c1 (configuration not stated) ?
Response line: n

Prompt line: CN(C)CC1CCC/C(=C\c2ccccc2)C1=O (configuration not stated) ?
Response line: n

Prompt line: CC(=O)OCC1OC(n2c3c(c(-c4ccc(Cl)cc4)c(C#N)c2=S)CCCC3)C(OC(C)=O)C(OC(C)=O)C1OC(C)=O (configuration not stated) ?
Response line: n

Prompt line: `CN(C)N1C(=O)C(=O)N(c2cccc3ccccc23)C1=O` ?
Response line: n

Prompt line: `FC(F)(F)c1ccc(/N=N/N2CCCC2)cc1` ?
Response line: n

====

- Tested on: DU-145
- protocol description: NCI tumour cell line growth inhibition, 48 h
Activity calls are given as the source filed them. No stated cut-off is given here; in the data, active = GI50 up to about 1.1 µM and inactive = higher.
Log the outcome using a class from 1.0 = active, 0.0 = inactive

> print(dat)
                                   molecule  target.system  class.label
1  C=C(CCOC)CCC1CCCCC/C1=N\N(C)C (stereo not given)         DU-145          0.0
2  NS(=O)(=O)c1cc2c(cc1Cl)N=C(CCC(=O)O)NS2(=O)=O         DU-145          0.0
3  O=C1CC(=O)NC(NN2C(=O)CSC2c2ccccc2)=N1 (stereo not given)         DU-145          0.0
4  CC1CC2(OC2C)C(=O)OC2CCN(C)C/C=C(/COC(=O)C1(C)O)C2=O (stereo not given)         DU-145          0.0
5  COc1ccc(-n2c(C)nc3ccc(NC4OC(COC(C)=O)C(OC(C)=O)C(OC(C)=O)C4OC(C)=O)cc3c2=O)cc1 (stereo not given)         DU-145          0.0
6          COc1cc(OC)c(OC)cc1/C=N/N=C(\N)NO         DU-145          0.0

Prompt line: Tell me the assay call for COc1cc(C2c3cc4c(cc3OC(NC3CCCCC3)C2C)OCO4)cc(OC)c1OC (stereo not given) please.
Response line: 1.0

Prompt line: `COc1cccc(/C=N/C(/N=C/c2cccc(OC)c2O)c2cccc(OC)c2O)c1O` ?
Response line: 0.0

Prompt line: Cc1ccc(C2(O)c3ccccc3C(=O)N(C)C2(O)c2ccc(C)cc2)cc1 (stereo not given) ?
Response line: 0.0

Prompt line: `Fc1ccccc1CN1COc2c(cc(Cl)c3cccnc23)C1` ?
Response line: 0.0

====

- Tested on: MOLT-4
- protocol description: NCI tumour cell line growth inhibition, 48 h
The source made the active and inactive calls. Rule as the data show it: active = GI50 up to about 1.1 µM and inactive = higher.
readout type: GI50

> print(dat)
                      molecule      reported.value
1  O=C1CCCCC/C1=C\c1cccc(Cl)c1  27.4 µM (inactive)

Prompt line: GET /values?readout=GI50&item= `COc1ccc(/C=C2\Sc3nnc(-c4ccccc4)n3N=C2c2cc(F)c(Cl)cc2Cl)cc1OC`
Response line: 0.948 µM (active)

Prompt line: `Nn1c(S)nnc1COc1cccc(OCc2nnc(S)n2N)c1` ?
Response line: 3.13 µM (inactive)
